Data origin, for the record: patent EP0609437B1

- assayOverview: Acute toxicity, single intravenous administration
- Assay type: in vivo
- appliedConditions: rat, in vivo; single intravenous dose, male Crj:CD rats, observed for 7 days
propertyLabel: LD50 at 168 h

# return recorded LD50 at 168 h for input `CCCCCCCCCCCCCCC[C@@H](O)[C@H](CO[C@H]1O[C@H](CO)[C@H](O)[C@H](O)[C@H]1O)NC(=O)CCCCCCCCCCCCC`
≥ 10 mg/kg

---

- Test system: spleen cells of C57BL/6 mouse and pancreatic cells of BALB/c mouse
- assayOverview: Lymphocyte mixed culture reaction (mouse MLR), uptake of 3H-TdR
- Type: cell-based
- appliedConditions: Mus musculus, Lymphocyte, 50 h; sample concentration 10^-2 µg/ml; cultured for 42 hours, then 8 hours with 3H-TdR; read-out: Uptake of ^3H-TdR (% of control)
Kindly state activity at 0.01 µg/mL for each of the entries shown.
Answer as a quantity: numeral, then unit.

# return recorded activity at 0.01 µg/mL for input `CCCCCCCCCCCCCCCCCCCCCCCC(=O)N[C@@H](CO[C@H]1O[C@H](CO)[C@H](O)[C@H](O)[C@H]1O)[C@H](O)[C@H](O)CCCCCCCCCCCCC`
143%

# return recorded activity at 0.01 µg/mL for input `CCCCCCCCCCCCCC(=O)N[C@@H](CO[C@H]1O[C@H](CO)[C@H](O)[C@H](O)[C@H]1O)[C@@H](O)CCCCCCCCCCCCC`
104%

# return recorded activity at 0.01 µg/mL for input `CCCCCCCCCCCCC/C=C/[C@@H](O)[C@H](CO[C@H]1O[C@H](CO)[C@H](O)[C@H](O)[C@H]1O)NC(=O)CCCCCCCCCCCCCCCCC`
144%

---

Kindly state activity at 0.01 µg/mL for each of the entries shown.
- System: spleen cells of C57BL/6 mouse and pancreatic cells of BALB/c mouse
- assayOverview: Lymphocyte mixed culture reaction (mouse MLR), uptake of 3H-TdR
- Type: cell-based
- appliedConditions: Mus musculus, Lymphocyte, 50 h; sample concentration 10^-2 µg/ml; cultured for 42 hours, then 8 hours with 3H-TdR; read-out: Uptake of ^3H-TdR (% of control)
Answer with a number only, understood to be in %.

# return recorded activity at 0.01 µg/mL for input `CCCCCCCCCCCCCCCCCCCCCCCC(=O)N[C@@H](CO[C@H]1O[C@H](CO)[C@H](O)[C@H](O)[C@H]1O)[C@H](O)[C@H](O)CCCCCCCCCCCC(C)C`
163

# return recorded activity at 0.01 µg/mL for input `CCCCCCCC/C=C\CCCCCCCC(=O)N[C@@H](CO[C@H]1O[C@H](CO)[C@H](O)[C@H](O)[C@H]1O)[C@H](O)CCCCCCCCCCCCCCC`
215

# return recorded activity at 0.01 µg/mL for input `CCCCCCCCCCCCCCCCCCCCCC[C@H](O)C(=O)N[C@@H](CO[C@H]1O[C@H](CO)[C@H](O)[C@H](O)[C@H]1O)[C@H](O)[C@H](O)CCCCCCCCCCCCC`
141

---

- Test system: spleen cells of C57BL/6 mouse and pancreatic cells of BALB/c mouse
- assayOverview: Lymphocyte mixed culture reaction (mouse MLR), uptake of 3H-TdR
- Type: cell-based
- appliedConditions: Mus musculus, Lymphocyte, 50 h; sample concentration 10^-2 µg/ml; cultured for 42 hours, then 8 hours with 3H-TdR; read-out: Uptake of ^3H-TdR (% of control)
propertyLabel: activity at 0.01 µg/mL (%)
Answer with a number only, understood to be in %.

# return recorded activity at 0.01 µg/mL for input CCCCCCCCCCCCCCC[C@@H](O)[C@H](CO[C@H]1O[C@H](CO)[C@H](O)[C@H](O)[C@H]1O)NC(=O)CCCCCCCCCCCCC [Compound 5]
153

# return recorded activity at 0.01 µg/mL for input CCCCCCCCCCCCCCCCCCCCCCCC[C@@H](O)C(=O)N[C@@H](CO[C@H]1O[C@H](CO)[C@H](O)[C@H](O)[C@H]1O)[C@H](O)[C@H](O)CCCCCCCCCCCCCCC [Compound 26]
193

# return recorded activity at 0.01 µg/mL for input CCCCCCCCCCCCCCCCCCCCCC[C@@H](O)C(=O)N[C@@H](CO[C@H]1O[C@H](CO)[C@H](O)[C@H](O)[C@H]1O)[C@H](O)[C@H](O)CCCCCCCCCCCCCC [Compound 21]
142

# return recorded activity at 0.01 µg/mL for input CCCCCCCCCCCCCCCCCCCCCC[C@H](O)C(=O)N[C@@H](CO[C@H]1O[C@H](CO)[C@H](O)[C@H](O)[C@H]1O)[C@H](O)[C@H](O)CCCCCCCCCCCC(C)C [Compound 30]
134

# return recorded activity at 0.01 µg/mL for input CCCCCCCCCCCCCCCCCCCC(=O)N[C@@H](CO[C@H]1O[C@H](CO)[C@H](O)[C@H](O)[C@H]1O)[C@H](O)CCCCCCCCCCCCCCC [Compound 3]
110

# return recorded activity at 0.01 µg/mL for input CCCCCCCCCCCCCCCCCCCCCCCC(=O)N[C@@H](CO[C@H]1O[C@H](CO)[C@H](O)[C@H](O)[C@H]1O)[C@H](O)[C@H](O)CCCCCCCCCCC [Compound 18]
138

# return recorded activity at 0.01 µg/mL for input CCCCCCCCCCCCCCCCCC(=O)N[C@@H](CO[C@H]1O[C@H](CO)[C@H](O)[C@H](O)[C@H]1O)[C@H](O)CCCCCCCCCCCCCCC [Compound 4]
134

# return recorded activity at 0.01 µg/mL for input CCCCCCCCCCCCC/C=C/[C@@H](O)[C@H](CO[C@H]1O[C@H](CO)[C@H](O)[C@H](O)[C@H]1O)NC(=O)CCCCCCCCCCCCC [Compound 35]
247

# return recorded activity at 0.01 µg/mL for input CCCCCCCCCCCCCCCCCCCCCC(=O)N[C@@H](CO[C@H]1O[C@H](CO)[C@H](O)[C@H](O)[C@H]1O)[C@H](O)CCCCCCCCCCCCCCC [Compound 2]
103

# return recorded activity at 0.01 µg/mL for input CCCCCCCCCCCCCCCCCCCCCCCC(=O)N[C@@H](CO[C@H]1O[C@H](CO)[C@H](O)[C@H](O)[C@H]1O)[C@H](O)[C@H](O)CCCCCCCCCCCCCC [Compound 16]
160

# return recorded activity at 0.01 µg/mL for input CCCCCCCCCCCCCCCCCCCCCCCC(=O)N[C@@H](CO[C@H]1O[C@H](CO)[C@H](O)[C@H](O)[C@H]1O)[C@H](O)[C@H](O)CCCCCCC [Compound 19]
144
